Test: Study #2 Phase 1: pharmacokinetics after single IV and single/multiple oral doses of Compound 1, absolute oral bioavailability
Conditions: human, plasma, po, 500 mg, AUC(0-24), Day 7, Cohort 4, 500 mg Oral Solution QD × 14 Days, fed, geometric mean
readoutName: AUC(0-t) (µg·h/mL)
Entry rule: numbers only, all in µg·h/mL.

Tell me the measured AUC(0-t) of Nc1ncccc1-c1cc(Cc2ccc(COc3ccccn3)cc2)no1 [Compound 1A] , please.
140

* * *

Test: Study #2 Phase 1: pharmacokinetics after single IV and single/multiple oral doses of Compound 1, absolute oral bioavailability
Details: human, plasma, oral
readoutName: bioavailability

Tell me the measured bioavailability of Nc1ncccc1-c1cc(Cc2ccc(COc3ccccn3)cc2)no1 [Compound 1A] , please.
90.6 to 101%

* * *

Assay: Study #1 Phase 1: plasma and urine pharmacokinetics of Compound 1 and Compound 1A after IV infusion of Compound 1 (SAD, MAD, loading regimen)
Conditions: both, human, plasma, 200 mg, Tmax, Cohort 4: Compound 1 200 mg/3 hr IV, single dose, median
readoutName: Tmax (h)
Entry rule: numbers only, all in h.

Tell me the measured Tmax of Nc1ncccc1-c1cc(Cc2ccc(COc3ccccn3)cc2)no1 , please.
3

* * *

Test: Study #2 Phase 1: pharmacokinetics after single IV and single/multiple oral doses of Compound 1, absolute oral bioavailability
Conditions: human, plasma, po, 300 mg, AUC(0-24), 300 mg Oral Compound 1, fasted, geometric mean
readoutName: AUC(0-t) (µg·h/mL)
Entry rule: numbers only, all in µg·h/mL.

Tell me the measured AUC(0-t) of Nc1ncccc1-c1cc(Cc2ccc(COc3ccccn3)cc2)no1 , please.
35.6

* * *

Assay: Study #2 Phase 1: pharmacokinetics after single IV and single/multiple oral doses of Compound 1, absolute oral bioavailability
Details: human, plasma, po, 300 mg, AUC(0-t), 300 mg Oral Compound 1, fasted, geometric mean
readoutName: AUC(0-t) (µg·h/mL)
Entry rule: numbers only, all in µg·h/mL.

Tell me the measured AUC(0-t) of Nc1ncccc1-c1cc(Cc2ccc(COc3ccccn3)cc2)no1 , please.
118

* * *

Test: clinical
Conditions: both, human, in vivo, iv, t½
readoutName: half-life (h)
Entry rule: numbers only, all in h.

Tell me the measured half-life of Nc1ncccc1-c1cc(Cc2ccc(COc3ccccn3)cc2)no1 , please.
39.2

* * *

Assay: Study #1 Phase 1: plasma and urine pharmacokinetics of Compound 1 and Compound 1A after IV infusion of Compound 1 (SAD, MAD, loading regimen)
Details: both, human, plasma, 150 mg, AUC(0-24), Cohort 8: Compound 1 150 mg/3 hr IV QD × 14 days, Day 7, geometric mean
readoutName: AUC(0-t) (ng·h/mL)
Entry rule: numbers only, all in ng·h/mL.

Tell me the measured AUC(0-t) of Nc1ncccc1-c1cc(Cc2ccc(COc3ccccn3)cc2)no1 , please.
48700

* * *

Assay: clinical
Settings: both, human, in vivo, iv, geometric mean t1/2, range across cohorts
readoutName: half-life

Tell me the measured half-life of Nc1ncccc1-c1cc(Cc2ccc(COc3ccccn3)cc2)no1 [Compound 1A] , please.
48 to 69 h

* * *

Assay: Study #1 Phase 1: plasma and urine pharmacokinetics of Compound 1 and Compound 1A after IV infusion of Compound 1 (SAD, MAD, loading regimen)
Settings: both, human, plasma, 300 mg, Cmax, Cohort 9: Compound 1 300 mg/3 hr IV QD × 14 days, Day 7, geometric mean
readoutName: Cmax (ng/mL)
Entry rule: numbers only, all in ng/mL.

Tell me the measured Cmax of Nc1ncccc1-c1cc(Cc2ccc(COc3ccccn3)cc2)no1 , please.
6650

* * *

Assay: Study #2 Phase 1: pharmacokinetics after single IV and single/multiple oral doses of Compound 1, absolute oral bioavailability
Settings: human, plasma, po, 100 mg, Tmax, 100 mg Oral Compound 1, fasted, median
readoutName: Tmax (h)
Entry rule: numbers only, all in h.

Tell me the measured Tmax of Nc1ncccc1-c1cc(Cc2ccc(COc3ccccn3)cc2)no1 , please.
2

* * *

Assay: Study #2 Phase 1: effect of food (fed vs fasted) on pharmacokinetics of Compound 1A after 400 mg oral Compound 1
Conditions: human, plasma, po, 400 mg, CL/F, Cohort 1B, 400 mg oral Compound 1, Fed, geometric mean
readoutName: CL/F
Please format your answer as a value with the unit trailing.

Tell me the measured CL/F of Nc1ncccc1-c1cc(Cc2ccc(COc3ccccn3)cc2)no1 , please.
0.395 mL/min/kg

* * *

Test: Study #2 Phase 1: pharmacokinetics after single IV and single/multiple oral doses of Compound 1, absolute oral bioavailability
Settings: human, plasma, po, 500 mg, Cmax, Day 1, Cohort 4, 500 mg Oral Solution QD × 14 Days, fed, geometric mean
readoutName: Cmax (ng/mL)
Entry rule: numbers only, all in ng/mL.

Tell me the measured Cmax of Nc1ncccc1-c1cc(Cc2ccc(COc3ccccn3)cc2)no1 , please.
5850

* * *

Experiment: Study #1 Phase 1: plasma and urine pharmacokinetics of Compound 1 and Compound 1A after IV infusion of Compound 1 (SAD, MAD, loading regimen)
Conditions: both, human, plasma, 50 mg, Tmax, Cohort 7: Compound 1 50 mg/3 hr IV QD × 14 days, Day 1, median
readoutName: Tmax
Please format your answer as a value with the unit trailing.

Tell me the measured Tmax of Nc1ncccc1-c1cc(Cc2ccc(COc3ccccn3)cc2)no1 , please.
3 h

* * *

Assay: Study #1 Phase 1: plasma and urine pharmacokinetics of Compound 1 and Compound 1A after IV infusion of Compound 1 (SAD, MAD, loading regimen)
Conditions: both, human, plasma, 50 mg, Tmax, Cohort 7: Compound 1 50 mg/3 hr IV QD × 14 days, Day 7, median
readoutName: Tmax
Please format your answer as a value with the unit trailing.

Tell me the measured Tmax of Nc1ncccc1-c1cc(Cc2ccc(COc3ccccn3)cc2)no1 , please.
3 h

* * *

Test: Study #2 Phase 1: pharmacokinetics after single IV and single/multiple oral doses of Compound 1, absolute oral bioavailability
Details: human, plasma, po, 500 mg, AUC(0-24), Day 14, Cohort 4, 500 mg Oral Solution QD × 14 Days, fed, geometric mean
readoutName: AUC(0-t)
Please format your answer as a value with the unit trailing.

Tell me the measured AUC(0-t) of Nc1ncccc1-c1cc(Cc2ccc(COc3ccccn3)cc2)no1 [Compound 1A] , please.
153 µg·h/mL

* * *

Experiment: Study #2 Phase 1: pharmacokinetics after single IV and single/multiple oral doses of Compound 1, absolute oral bioavailability
Conditions: human, plasma, po, 500 mg, AUC(0-24), Day 1, Cohort 4, 500 mg Oral Solution QD × 14 Days, fed, geometric mean
readoutName: AUC(0-t)
Please format your answer as a value with the unit trailing.

Tell me the measured AUC(0-t) of Nc1ncccc1-c1cc(Cc2ccc(COc3ccccn3)cc2)no1 [Compound 1A] , please.
56700 ng·h/mL

* * *

Assay: Study #2 Phase 1: pharmacokinetics after single IV and single/multiple oral doses of Compound 1, absolute oral bioavailability
Details: human, plasma, iv, 200 mg
readoutName: AUC(0-inf) (ng·h/mL)
Entry rule: numbers only, all in ng·h/mL.

Tell me the measured AUC(0-inf) of Nc1ncccc1-c1cc(Cc2ccc(COc3ccccn3)cc2)no1 [Compound 1A] , please.
87500

* * *

Assay: Study #2 Phase 1: effect of food (fed vs fasted) on pharmacokinetics of Compound 1A after 400 mg oral Compound 1
Conditions: human, plasma, po, 400 mg, AUC(inf), Cohort 1B, 400 mg oral Compound 1, Fed, geometric mean
readoutName: AUC(0-inf)
Please format your answer as a value with the unit trailing.

Tell me the measured AUC(0-inf) of Nc1ncccc1-c1cc(Cc2ccc(COc3ccccn3)cc2)no1 [Compound 1A] , please.
188 µg·h/mL

* * *

Test: Study #2 Phase 1: effect of food (fed vs fasted) on pharmacokinetics of Compound 1A after 400 mg oral Compound 1;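 note: cohort 1b subjects took one oral dose in both fed and fasted states, across two separate periods (E, F) within the single ascending dose phase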
Details: human, plasma, po, 400 mg, AUC(0-24), Cohort 1B, 400 mg oral Compound 1, Fed, geometric mean
readoutName: AUC(0-t) (ng·h/mL)
Entry rule: numbers only, all in ng·h/mL.

Tell me the measured AUC(0-t) of Nc1ncccc1-c1cc(Cc2ccc(COc3ccccn3)cc2)no1 , please.
43600

* * *

Test: Study #2 Phase 1: pharmacokinetics after single IV and single/multiple oral doses of Compound 1, absolute oral bioavailability;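 note: phase 1 study design: one IV dose, then escalating single oral doses, fed versus fasted single oral dosing, and once-daily oral dosing over 14 days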
Conditions: human, plasma, po, 500 mg, AUC(0-t), 500 mg Oral Compound 1, fasted, geometric mean
readoutName: AUC(0-t) (µg·h/mL)
Entry rule: numbers only, all in µg·h/mL.

Tell me the measured AUC(0-t) of Nc1ncccc1-c1cc(Cc2ccc(COc3ccccn3)cc2)no1 [Compound 1A] , please.
197

* * *

Experiment: Study #1 Phase 1: plasma and urine pharmacokinetics of Compound 1 and Compound 1A after IV infusion of Compound 1 (SAD, MAD, loading regimen)
Settings: both, human, plasma, 1000 mg, AUC(inf), Cohort 11: Compound 1 1,000 mg/3 hr IV, single dose, geometric mean
readoutName: AUC(0-inf) (µg·h/mL)
Entry rule: numbers only, all in µg·h/mL.

Tell me the measured AUC(0-inf) of Nc1ncccc1-c1cc(Cc2ccc(COc3ccccn3)cc2)no1 , please.
400

Source listed as patent US20210290644A1.
